- assay-procedure: amyloid nucleation score (Sup35N fusion, yeast selection) (log enrichment); library NNK3; higher = more nucleation; inactive = no reads after selection;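 further: zero at mode of non-aggregating sequences after 7 days selection at 30°C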
parameter: amyloid nucleation score

Answered cases to consult:
- substance: "FICVAIGTFCFIEMMHLIGR"
  amyloid nucleation score: 1.23
- substance: "QFSNNSLKVRFMCVLYVVDR"
  amyloid nucleation score: -0.039
- substance: "SQVGWG"
  amyloid nucleation score: "inactive"
- substance: "YGGNSIY"
  amyloid nucleation score: "inactive"
- substance: "SSCRTRC"
  amyloid nucleation score: -0.405

Batch of 4 substances: report amyloid nucleation score for each.
1. LMKMHQCDSKVWNEMGDASN
2. FSRGLNHYNLYNFGGLCICT
3. MISWLNQKYHVLNQNFIYG
4. IGYTRLLFLMDVTVGIRVGW

inactive
2.91
inactive
inactive

====

- assay-procedure: amyloid nucleation score (Sup35N fusion, yeast selection) (log enrichment); library NNK2; higher = more nucleation; inactive = no reads after selection
Please mark met if the recorded amyloid nucleation score is equal to or greater than 2, and not met if it falls below.

Is it the case that "TSGPLFAPPC" has amyloid nucleation score reaching or exceeding 2?
not met

Is it the case that "SIPSCCWSLMGFNIIELDDG" has amyloid nucleation score reaching or exceeding 2?
not met

Is it the case that "ICKGRCVASGWV" has amyloid nucleation score reaching or exceeding 2?
not met

Is it the case that "AEYPHAFFSDCACYHIPGSA" has amyloid nucleation score reaching or exceeding 2?
not met

Is it the case that "KKTSEKLEGYNVNISVLRGY" has amyloid nucleation score reaching or exceeding 2?
met

Is it the case that "YIELMGHWVGTSRKCVSDRS" has amyloid nucleation score reaching or exceeding 2?
not met

====

- assay-procedure: amyloid nucleation score (Sup35N fusion, yeast selection) (log enrichment); library NNK1; higher = more nucleation; inactive = no reads after selection
Please mark MET if the recorded amyloid nucleation score is equal to or greater than 0.4, and NOT MET if it falls below.

Solved entries:
- monomer-sequence: "YSNWSCLYCSKSL"
  assigned-class: "MET"
- monomer-sequence: "PSLVQNGSQSTPVEDYIIEY"
  assigned-class: "NOT MET"
- monomer-sequence: "APTRACSNGDMLREE"
  assigned-class: "MET"
- monomer-sequence: "MRLSHAVTYRN"
  assigned-class: "NOT MET"
- monomer-sequence: "FWQIAGRGFGRYG"
  assigned-class: "NOT MET"

Is it the case that "MSVGSRFTHHIMWTVTKNRV" has amyloid nucleation score reaching or exceeding 0.4?
MET

Is it the case that "YSCPNLIWA" has amyloid nucleation score reaching or exceeding 0.4?
NOT MET

Is it the case that "TVFMVKDRVILRFGRGLKAW" has amyloid nucleation score reaching or exceeding 0.4?
NOT MET

Is it the case that "SIWSGMLTGCFRLRSITWHN" has amyloid nucleation score reaching or exceeding 0.4?
MET

====

Provide the recorded amyloid nucleation score for the entries that follow.
- assay-procedure: amyloid nucleation score (Sup35N fusion, yeast selection) (log enrichment); library NNK2; higher = more nucleation; inactive = no reads after selection
Answers are plain numbers.

- monomer-sequence: "KSDPAVIPY"
  amyloid nucleation score: 0.713
- monomer-sequence: "YGRSTHPGSRSF"
  amyloid nucleation score: -1.25
- monomer-sequence: "RATSVSILVQLGETLFCEYT"
  amyloid nucleation score: 0.56

Batch of 5 sequences: report amyloid nucleation score for each.
1. EFCSYDGCYFIASMAFVDTR
2. RGTAIKILYL
3. GAGPEEPDSLDEVIVT
4. LNTKTCVIPSTTCVTIPERE
5. SWRAYSSF

[-0.393, 5.46, 0.202, 0.242, 2.73]

Batch of 5 sequences: report amyloid nucleation score for each.
1. ASNAFRSGYWQGERHERMRL
2. FVESVSEPALCIFKVSGYCS
3. HFKSSKECSKWVGICREEGR
4. QFSYLYLVMASRSLTAVIIV
5. GGTDMATFNVPKNEVRDRRG

1.07
-0.685
0.338
-0.887
1.4
